target: GlyT2 V432A mutant (Homo sapiens, UniProt Q9Y345, V432A); construct: expressed in transfected cells; host or cells: Xenopus laevis oocytes (cRNA injection); assay: Glycine transport currents, two electrode voltage clamp, oocytes expressing GlyT2 V432A; type: cell-based; conditions: GlyT2 V432A; mean ± SEM

compound | % Max. inhibition
CCCCCCCC/C=C\CCCCCCCC(=O)N[C@@H](CCCCN)C(=O)O | 71.9 ± 1.9 (p=0.0001) %
CCCCCCCC/C=C\CCCCCCCC(=O)O[C@H](CC(=O)[O-])C[N+](C)(C)C [oleoyl L-Carnitine, reference compound] | 6.0 ± 3.2 (p=0.0001) %
CCC=CCCCCCCCCCCCC(=O)NCC(=O)O | 1.0 ± 3.0 (p=0.0193) %
CCCCC/C=C\C/C=C\C/C=C\C/C=C\CCCC(=O)NCC(=O)O [N-arachidonyl Glycine, reference compound] | 4.2 ± 3.2 (p=0.0018) %

====

molecular target: GlyT2 R439L mutant (Homo sapiens, UniProt Q9Y345, R439L); assay: Glycine transport currents, two electrode voltage clamp, oocytes expressing GlyT2 R439L; conditions: GlyT2 R439L; mean (95% CI)
experimental readout: IC50 (nM)

smiles input | observed value
CCCCCCCC/C=C\CCCCCCCC(=O)N[C@@H](Cc1c[nH]c2ccccc12)C(=O)O | 109

====

target: GlyT2 W563L mutant (Homo sapiens, UniProt Q9Y345, W563L); construct: expressed in transfected cells; host or cells: Xenopus laevis oocytes (cRNA injection); assay: Glycine transport currents, two electrode voltage clamp, oocytes expressing GlyT2 W563L; type: cell-based; conditions: GlyT2 W563L; greater than maximum concentration applied (footnote a)

compound | IC50
CCCCCCCC/C=C\CCCCCCCC(=O)O[C@H](CC(=O)[O-])C[N+](C)(C)C [oleoyl L-Carnitine, reference compound] | > 3 µM
CCCCCCCC/C=C\CCCCCCCC(=O)N[C@@H](Cc1c[nH]c2ccccc12)C(=O)O | > 3 µM

====

biological target: GlyT2 P561S mutant (Homo sapiens, UniProt Q9Y345, P561S); construct: expressed in transfected cells; host or cells: Xenopus laevis oocytes (cRNA injection); assay: Glycine transport currents, two electrode voltage clamp, oocytes expressing GlyT2 P561S; format: cell-based; conditions: GlyT2 P561S; greater than maximum concentration applied (footnote a)

compound | IC50
CCCCCCCC/C=C\CCCCCCCC(=O)O[C@H](CC(=O)[O-])C[N+](C)(C)C [oleoyl L-Carnitine, reference compound] | > 3 µM

====

target: GlyT2 P561S mutant (Homo sapiens, UniProt Q9Y345, P561S); experiment: Glycine transport currents, two electrode voltage clamp, oocytes expressing GlyT2 P561S; settings: glycine transport, GlyT2 P561S (TM8)
experimental readout: EC50 (µM)

smiles input | measure unit | observed value
NCC(=O)O | µM | 15.5

====

Target: GlyT2 F428A mutant (Homo sapiens, UniProt Q9Y345, F428A)
Construct: expressed in transfected cells; host or cells: Xenopus laevis oocytes (cRNA injection)
Sequence (Q9Y345 1-797 F428A): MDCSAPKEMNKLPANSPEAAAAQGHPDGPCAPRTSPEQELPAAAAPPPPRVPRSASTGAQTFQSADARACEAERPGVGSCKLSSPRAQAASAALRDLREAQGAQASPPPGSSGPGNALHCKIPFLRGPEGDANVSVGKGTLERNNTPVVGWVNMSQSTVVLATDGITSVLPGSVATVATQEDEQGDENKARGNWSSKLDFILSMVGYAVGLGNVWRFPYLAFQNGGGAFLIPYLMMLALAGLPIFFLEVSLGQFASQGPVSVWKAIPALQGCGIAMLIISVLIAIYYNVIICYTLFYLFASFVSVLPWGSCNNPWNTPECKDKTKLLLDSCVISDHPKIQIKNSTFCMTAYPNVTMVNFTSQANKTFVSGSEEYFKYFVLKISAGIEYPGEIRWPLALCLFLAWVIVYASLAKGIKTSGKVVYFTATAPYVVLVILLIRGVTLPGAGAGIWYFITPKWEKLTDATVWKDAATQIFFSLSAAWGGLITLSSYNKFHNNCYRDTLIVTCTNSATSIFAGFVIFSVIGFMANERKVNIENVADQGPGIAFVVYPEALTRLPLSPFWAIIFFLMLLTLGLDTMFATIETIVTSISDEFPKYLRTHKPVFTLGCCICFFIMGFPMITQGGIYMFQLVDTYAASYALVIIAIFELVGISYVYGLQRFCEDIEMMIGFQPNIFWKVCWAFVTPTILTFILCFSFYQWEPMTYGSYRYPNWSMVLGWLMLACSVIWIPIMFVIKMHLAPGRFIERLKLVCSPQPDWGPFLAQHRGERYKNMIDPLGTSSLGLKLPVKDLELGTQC
Assay: Glycine transport currents, two electrode voltage clamp, oocytes expressing GlyT2 F428A
Format: cell-based
Details: GlyT2 F428A; mean (95% CI)
Attribute: IC50

molecule | IC50, µM
CCCCCCCCCCC=CCCCC(=O)NCC(=O)O | 4.81
CCCCC/C=C\C/C=C\C/C=C\C/C=C\CCCC(=O)NCC(=O)O [N-arachidonyl Glycine, reference compound] | 14.4
CCCCCCCCCC=CCCCCCCC(=O)NCC(=O)O | 0.776

====

target: GlyT2 Q473A mutant (Homo sapiens, UniProt Q9Y345, Q473A); details: read-out: Glycine EC50; glycine transport, GlyT2 Q473A (vestibule allosteric site)

molecule | system under test | EC50 / µM
NCC(=O)O [Glycine] | GlyT2 Q473A mutant (Homo sapiens, UniProt Q9Y345, Q473A) | 498

====

Attribute: % Max. inhibition
Target: GlyT1 L425I mutant (Homo sapiens, UniProt P48067, L439I)
Construct: expressed in transfected cells; host or cells: Xenopus laevis oocytes (cRNA injection)
Sequence (P48067 1-652 isoform P48067-3 L385I): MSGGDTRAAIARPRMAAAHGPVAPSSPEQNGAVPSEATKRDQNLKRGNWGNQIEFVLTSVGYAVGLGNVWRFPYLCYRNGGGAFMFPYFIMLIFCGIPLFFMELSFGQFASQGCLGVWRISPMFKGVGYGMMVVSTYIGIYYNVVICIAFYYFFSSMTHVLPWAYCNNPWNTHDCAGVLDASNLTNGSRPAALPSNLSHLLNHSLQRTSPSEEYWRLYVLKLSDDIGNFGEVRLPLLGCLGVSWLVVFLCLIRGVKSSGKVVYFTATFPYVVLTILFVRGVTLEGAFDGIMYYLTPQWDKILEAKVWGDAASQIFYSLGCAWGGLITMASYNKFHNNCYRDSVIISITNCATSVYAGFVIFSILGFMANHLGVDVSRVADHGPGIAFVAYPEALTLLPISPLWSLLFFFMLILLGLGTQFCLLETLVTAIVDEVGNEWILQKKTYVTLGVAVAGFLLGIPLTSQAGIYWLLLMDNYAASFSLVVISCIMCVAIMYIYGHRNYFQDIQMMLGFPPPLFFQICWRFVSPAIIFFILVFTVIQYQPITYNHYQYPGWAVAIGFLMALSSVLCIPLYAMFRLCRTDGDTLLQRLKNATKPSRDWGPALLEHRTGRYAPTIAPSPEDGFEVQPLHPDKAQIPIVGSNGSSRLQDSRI
Assay: Glycine transport currents, two electrode voltage clamp, oocytes expressing GlyT1 L425I
Assay type: cell-based
Details: GlyT1 L425I; mean ± SEM

compound | measure unit | % Max. inhibition
CCCCCCCC/C=C\CCCCCCCC(=O)N[C@@H](CCCCN)C(=O)O [oleoyl l-Lysine] | % | 95.6
CCCCCCCC/C=C\CCCCCCCC(=O)O[C@H](CC(=O)[O-])C[N+](C)(C)C [oleoyl L-Carnitine, reference compound] | % | 74.6

====

Biological target: GlyT2 F428A mutant (Homo sapiens, UniProt Q9Y345, F428A)
Construct: expressed in transfected cells; host or cells: Xenopus laevis oocytes (cRNA injection)
Sequence (Q9Y345 1-797 F428A): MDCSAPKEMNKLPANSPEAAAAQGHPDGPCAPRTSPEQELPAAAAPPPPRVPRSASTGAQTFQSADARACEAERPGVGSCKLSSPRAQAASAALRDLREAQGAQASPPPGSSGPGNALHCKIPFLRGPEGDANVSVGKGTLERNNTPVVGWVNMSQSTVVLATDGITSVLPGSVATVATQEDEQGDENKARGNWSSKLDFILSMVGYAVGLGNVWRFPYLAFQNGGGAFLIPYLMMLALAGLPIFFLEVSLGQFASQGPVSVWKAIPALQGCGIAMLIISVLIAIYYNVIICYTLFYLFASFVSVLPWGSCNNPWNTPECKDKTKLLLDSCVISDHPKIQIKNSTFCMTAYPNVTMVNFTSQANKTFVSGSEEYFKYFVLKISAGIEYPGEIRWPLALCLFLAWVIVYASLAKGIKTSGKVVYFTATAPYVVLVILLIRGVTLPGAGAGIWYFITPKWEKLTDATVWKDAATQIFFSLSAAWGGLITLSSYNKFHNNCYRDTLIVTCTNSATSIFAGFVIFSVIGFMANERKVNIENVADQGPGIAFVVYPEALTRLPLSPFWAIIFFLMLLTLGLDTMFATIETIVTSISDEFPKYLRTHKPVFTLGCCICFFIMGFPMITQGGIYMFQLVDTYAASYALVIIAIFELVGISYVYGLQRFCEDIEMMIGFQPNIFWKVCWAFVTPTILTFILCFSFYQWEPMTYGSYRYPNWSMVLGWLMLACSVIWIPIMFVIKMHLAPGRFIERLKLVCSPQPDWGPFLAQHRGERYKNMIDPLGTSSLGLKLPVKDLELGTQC
Assay: Glycine transport currents, two electrode voltage clamp, oocytes expressing GlyT2 F428A
Format: cell-based
Conditions: GlyT2 F428A; mean ± SEM
Attribute: % Max. inhibition
experimental readout: % Max. inhibition

compound | experimental readout | observed value
CCCCCCCCCC=CCCCCCCC(=O)NCC(=O)O | % Max. inhibition | 25.3 ± 5.3 (p=0.0092) %
CCCCCC/C=C\CCCCCCCC(=O)NCC(=O)O | % Max. inhibition | 56.5%
CCCCCCCCCCC=CCCCC(=O)NCC(=O)O | % Max. inhibition | 103 ± 7.7 (p=0.6075) %
CCCCCCCC/C=C\CCCCCCCC(=O)NCC(=O)O [N-oleoyl Glycine, reference compound] | % Max. inhibition | 25.4 ± 4.9 (p=0.0001) %
CCCCCCCC=CCCCCCCCCC(=O)NCC(=O)O | % Max. inhibition | 13.2 ± 2.7 (p=0.0001) %

Measured values drawn from paper PMC6797481 for this set.
